assay: Acute toxicity test of oral administration in mice; type: in vivo; conditions: both sexes, ICR, mouse, in vivo, po
reported_property: LD50 at 7 days

                                   molecule        result
0  O=C1OC(c2ccc(O)c(O)c2)C(C(=O)O)/C1=C\c1ccc(O)c(O)c1 (stereo not shown) [Phellinsin A, phellinsin A]  ≥ 1000 mg/kg

Where do the numbers come from? From patent US20060115492A1.
